Reference source for all entries: patent US5750754A

# test_system: human, citrated, platelet-rich plasma (Homo sapiens, UniProt P05106+P08514)
# Construct: aggregating human, citrated, platelet-rich plasma; endogenous in cells; host or cells: human platelets in citrated platelet-rich plasma
# Sequence (P08514 32-887 limits assumed): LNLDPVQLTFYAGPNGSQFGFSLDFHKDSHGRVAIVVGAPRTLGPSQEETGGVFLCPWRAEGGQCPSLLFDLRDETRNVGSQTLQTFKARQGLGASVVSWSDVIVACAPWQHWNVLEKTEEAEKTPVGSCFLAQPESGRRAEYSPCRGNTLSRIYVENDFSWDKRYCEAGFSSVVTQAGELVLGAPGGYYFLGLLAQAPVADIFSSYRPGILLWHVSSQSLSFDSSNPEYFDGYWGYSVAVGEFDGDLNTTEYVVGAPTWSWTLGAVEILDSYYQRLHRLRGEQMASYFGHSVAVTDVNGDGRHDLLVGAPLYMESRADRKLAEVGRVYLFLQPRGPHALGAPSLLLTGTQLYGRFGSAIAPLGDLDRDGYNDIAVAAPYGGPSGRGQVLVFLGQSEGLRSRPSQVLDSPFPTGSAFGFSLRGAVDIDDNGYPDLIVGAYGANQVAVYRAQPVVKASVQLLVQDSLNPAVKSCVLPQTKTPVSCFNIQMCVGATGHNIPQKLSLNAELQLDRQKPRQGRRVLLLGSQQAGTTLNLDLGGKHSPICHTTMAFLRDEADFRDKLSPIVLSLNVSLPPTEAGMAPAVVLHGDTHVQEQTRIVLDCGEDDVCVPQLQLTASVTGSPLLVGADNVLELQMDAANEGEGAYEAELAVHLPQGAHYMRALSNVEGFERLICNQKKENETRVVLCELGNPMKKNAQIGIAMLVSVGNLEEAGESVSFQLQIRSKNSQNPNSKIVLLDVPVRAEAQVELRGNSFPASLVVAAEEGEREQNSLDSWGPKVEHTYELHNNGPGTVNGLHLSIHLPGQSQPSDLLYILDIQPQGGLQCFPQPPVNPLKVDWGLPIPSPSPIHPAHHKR
# Sequence (P08514 891-1039 limits assumed): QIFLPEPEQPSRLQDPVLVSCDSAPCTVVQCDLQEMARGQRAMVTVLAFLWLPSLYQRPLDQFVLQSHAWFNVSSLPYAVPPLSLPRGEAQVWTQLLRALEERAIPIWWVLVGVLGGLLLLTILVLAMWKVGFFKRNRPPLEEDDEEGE
# Sequence (P05106 27-788): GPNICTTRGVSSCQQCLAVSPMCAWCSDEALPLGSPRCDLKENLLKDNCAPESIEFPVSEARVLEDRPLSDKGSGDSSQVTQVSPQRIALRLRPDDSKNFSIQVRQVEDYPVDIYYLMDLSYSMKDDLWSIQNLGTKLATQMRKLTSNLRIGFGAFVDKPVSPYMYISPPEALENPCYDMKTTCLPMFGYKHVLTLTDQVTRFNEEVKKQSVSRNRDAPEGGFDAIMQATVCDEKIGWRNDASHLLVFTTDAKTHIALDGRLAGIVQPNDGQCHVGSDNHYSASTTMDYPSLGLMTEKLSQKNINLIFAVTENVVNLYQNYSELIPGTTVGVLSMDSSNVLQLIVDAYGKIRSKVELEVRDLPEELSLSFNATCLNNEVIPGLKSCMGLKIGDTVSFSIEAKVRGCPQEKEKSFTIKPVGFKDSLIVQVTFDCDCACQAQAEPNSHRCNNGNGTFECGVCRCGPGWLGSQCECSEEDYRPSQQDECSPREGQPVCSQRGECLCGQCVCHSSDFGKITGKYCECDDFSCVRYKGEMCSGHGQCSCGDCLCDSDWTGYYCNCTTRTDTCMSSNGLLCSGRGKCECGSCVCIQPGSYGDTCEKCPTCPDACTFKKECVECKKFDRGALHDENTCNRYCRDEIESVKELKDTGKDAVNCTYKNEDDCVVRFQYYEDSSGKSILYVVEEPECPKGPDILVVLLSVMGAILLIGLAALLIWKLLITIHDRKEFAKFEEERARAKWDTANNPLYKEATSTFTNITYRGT
# method_notes: Test (a): inhibition of ADP stimulated platelet aggregation (Born)
# Assay type: cell-based
# measurement_setup: ADP induced aggregation of human platelet-rich plasma; read-out: Test (a): pA2 value indicating potency of platelet aggregation inhibition (converted)
property: Kb (nM)
Numbers only, in nM.

Please review the entries below; each comes with its answer.
COC(=O)c1cc2cc(C(=O)CN3CCN(c4ccncc4)CC3)ccc2o1 = 7940
O=C(O)CCCCOc1ccc(N2CCN(c3ccncc3)CC2)cc1 = 1580

*Q* Provide Kb, system human, citrated, platelet-rich plasma (Homo sapiens, UniProt P05106+P08514), entry O=C(O)CO[C@@H]1CCN(C(=O)CN2CCN(c3ccncc3)CC2)C[C@H]1OCC(=O)O (relative stereo)
*A* 251

----------
# test_system: human, citrated, platelet-rich plasma (Homo sapiens, UniProt P05106+P08514)
# Construct: aggregating human, citrated, platelet-rich plasma; endogenous in cells; host or cells: human platelets in citrated platelet-rich plasma
# method_notes: Test (a): inhibition of ADP stimulated platelet aggregation (Born)
# Format: cell-based
# measurement_setup: ADP induced aggregation of human platelet-rich plasma; read-out: Test (a): pA2 value indicating potency of platelet aggregation inhibition (converted)
Kind request: treat 1000 nM as inclusive, so Kb at 1000 nM or higher is yes (1), anything lower is no (0).

*Q* Has `CCCCS(=O)(=O)N[C@@H](Cc1ccc(OCCCCC2CCN(c3ccncc3)CC2)cc1)C(=O)O` a recorded Kb greater than or equal to 1000 nM?
*A* no (0)

*Q* Has `O=C(O)CCNC(=O)c1ccc(N2CCN(c3ccncc3)CC2)cc1` a recorded Kb greater than or equal to 1000 nM?
*A* no (0)

----------
# test_system: human, citrated, platelet-rich plasma (Homo sapiens, UniProt P05106+P08514)
# Construct: aggregating human, citrated, platelet-rich plasma; endogenous in cells; host or cells: human platelets in citrated platelet-rich plasma
# method_notes: Test (a): inhibition of ADP stimulated platelet aggregation (Born)
# Type: cell-based
# measurement_setup: ADP induced aggregation of human platelet-rich plasma; read-out: Test (a): pA2 value indicating potency of platelet aggregation inhibition (converted)
Counter-ions that a name gives are not always drawn.
Kind request: treat 5 µM as inclusive, so Kb at 5 µM or higher is fulfilled, anything lower is not fulfilled.

Check out these entries, answers already filled in.
CN(Cc1ccc(-c2ccc(OCC(=O)O)cc2)cc1)c1ccncc1 = fulfilled
O=C(O)C1CCN(C(=O)c2ccc(N3CCN(c4ccncc4)CC3)cc2)CC1 = not fulfilled
O=C(O)CN1CCC(Oc2ccc(N3CCN(c4ccncc4)CC3)cc2)CC1 = not fulfilled
O=C(O)COc1ccc(CC(=O)N2CCN(c3ccncc3)CC2)cc1 [Example 150, dihydrochloride] = not fulfilled
O=C(N[C@@H](Cc1ccccc1)C(=O)O)c1ccc(N2CCN(c3ccncc3)CC2)cc1 = fulfilled

*Q* Has `CCCCS(=O)(=O)N[C@@H](Cc1ccc(OCCCC2CCN(c3ccncc3)CC2)cc1)C(=O)OC` a recorded Kb greater than or equal to 5 µM?
*A* fulfilled

----------
# test_system: purified human platelet fibrinogen receptor (GPIIb/IIIa) (Homo sapiens, UniProt P05106+P08514)
# Construct: is isolated from human platelet lysates; from tissue
# method_notes: Test (b): GPIIb/IIIa ELISA, inhibition of biotinylated fibrinogen binding
# measurement_setup: purified human platelet GPIIb/IIIa, ELISA; read-out: Test (b): pIC50 (-log(IC50)), 50% inhibition of biotinylated fibrinogen binding to GPIIb/IIIa (converted)
property: IC50 (nM)
Give bare numbers, in nM.

Please review the entries below; each comes with its answer.
CC(C)(C(=O)c1ccc(OCC(=O)O)cc1)N1CCN(c2ccncc2)CC1 = 10
CCCCC(=O)N[C@@H](Cc1ccc(OCC2CCN(c3ccncc3)CC2)cc1)C(=O)OC = 79.4
COCCNC(=O)COc1ccc(C(=O)CN2CCN(c3ccncc3)CC2)cc1 = 5010
O=C(O)COc1ccc(C(=O)CN2CCN(c3ccncc3)CC2)cc1 = 25.1

Would you be so kind as to report IC50 for each listed record?
1. CCCCS(=O)(=O)N[C@@H](Cc1ccc(OCCCN(C)c2ccncc2)cc1)C(=O)OC
2. CC(C)(C)COC(=O)COc1ccc(C(=O)CN2CCN(c3ccncc3)CC2)cc1

*A*
1: 7940; 2: 3980

----------
# test_system: human, citrated, platelet-rich plasma (Homo sapiens, UniProt P05106+P08514)
# Construct: aggregating human, citrated, platelet-rich plasma; endogenous in cells; host or cells: human platelets in citrated platelet-rich plasma
# method_notes: Test (a): inhibition of ADP stimulated platelet aggregation (Born)
# Type: cell-based
# measurement_setup: ADP induced aggregation of human platelet-rich plasma; read-out: Test (a): pA2 value indicating potency of platelet aggregation inhibition (converted)
Counter-ions that a name gives are not always drawn.
Kindly state Kb for each of the entries shown.
Give bare numbers, in nM.

Please review the entries below; each comes with its answer.
COC(=O)[C@H](Cc1ccccc1)NC(=O)c1ccc(N2CCN(c3ccncc3)CC2)cc1 = 63100
O=C(O)CC1(O)CCC(N2CCN(c3ccncc3)CC2)CC1 (stereo not drawn) = 2000
COC(=O)CCc1ccc(C(=O)CN2CCN(c3ccncc3)CC2)cc1 = 2000

Would you be so kind as to report Kb for each listed record?
1. CCCc1cc(N2CCN(c3ccncc3)CC2)ccc1OCCCC(=O)O
2. O=C(N[C@@H](Cc1ccc(OCCC2CCN(c3ccncc3)CC2)cc1)C(=O)O)OCc1ccccc1
3. CC(C)(Oc1ccc(C(=O)CN2CCN(c3ccncc3)CC2)cc1)C(=O)O [Example 135, dihydrobromide]

*A*
1: 316; 2: 316; 3: 31600

----------
# test_system: purified human platelet fibrinogen receptor (GPIIb/IIIa) (Homo sapiens, UniProt P05106+P08514)
# Construct: is isolated from human platelet lysates; from tissue
# method_notes: Test (b): GPIIb/IIIa ELISA, inhibition of biotinylated fibrinogen binding
# measurement_setup: purified human platelet GPIIb/IIIa, ELISA; read-out: Test (b): pIC50 (-log(IC50)), 50% inhibition of biotinylated fibrinogen binding to GPIIb/IIIa (converted)
Kindly state IC50 for each of the entries shown.

Please review the entries below; each comes with its answer.
Cc1ccc(S(=O)(=O)NCc2ccc(NC(=O)C3CCN(c4ccncc4)CC3)cc2)cc1 [Example 171] = > 100 µM
CCCCS(=O)(=O)NCC1CCN(C(=O)CN2CCN(c3ccncc3)CC2)CC1 [Example 115] = > 100 µM
COC(=O)COc1ccc(C(=O)CCN2CCN(c3ccncc3)CC2)cc1 [Example 7] = 3.98 to 6.31 µM

*Q* Item CCOC(=O)Cc1ccc(C(=O)CN2CCN(c3ccncc3)CC2)cc1 [Example 14] : provide IC50
*A* > 100 µM

----------
# test_system: purified human platelet fibrinogen receptor (GPIIb/IIIa) (Homo sapiens, UniProt P05106+P08514)
# Construct: is isolated from human platelet lysates; from tissue
# method_notes: Test (b): GPIIb/IIIa ELISA, inhibition of biotinylated fibrinogen binding
# measurement_setup: purified human platelet GPIIb/IIIa, ELISA; read-out: Test (b): pIC50 (-log(IC50)), 50% inhibition of biotinylated fibrinogen binding to GPIIb/IIIa (converted)
# Description: (i) Preparation of human platelet lysates. […] 96 well microtitre plates are coated with 100 μl purified human platelet fibrinogen receptor (GPIIb/IIIa) diluted in coating buffer (Tris-HCl 20 mM, NaCl 150 mM, CaCl2 1 mM, pH 7.4) and left overnight at 4° C. […] Colour is allowed to develop for 10-15 mins before optical densities are read at 650 nm. […]
property: IC50

Please review the entries below; each comes with its answer.
O=C(O)CCCOc1ccc(N2CCN(c3ccncc3)CC2)cc1 [Example 51] = 0.00398 to 0.0251 µM
COC(=O)COc1ccc(C(=O)CN2CCN(c3ccncc3)CC2)cc1 = 0.398 to 1.58 µM

*Q* Item `CCOC(=O)CCCOc1ccc(N2CCN(c3ccncc3)CC2)cc1` : provide IC50
*A* > 100 µM

----------
# test_system: human, citrated, platelet-rich plasma (Homo sapiens, UniProt P05106+P08514)
# Construct: aggregating human, citrated, platelet-rich plasma; endogenous in cells; host or cells: human platelets in citrated platelet-rich plasma
# method_notes: Test (a): inhibition of ADP stimulated platelet aggregation (Born)
# Assay type: cell-based
# measurement_setup: ADP induced aggregation of human platelet-rich plasma; read-out: Test (a): pA2 value indicating potency of platelet aggregation inhibition (converted)
Structures can show the parent of a compound that is named as a salt.
Kindly state Kb for each of the entries shown.
Numbers only, in µM.

Cc1ccc(S(=O)(=O)NCCC2CCN(C(=O)CN3CCN(c4ccncc4)CC3)CC2)cc1 [Example 223, dihydrochloride] = 1
Cc1cc(N2CCN(CC(=O)c3ccc(OCC(=O)O)cc3)CC2)c2ccccc2n1 = 50.1
O=C(O)C[C@H](NC(=O)CN1CCN(c2ccncc2)CC1)C(=O)N[C@@H](Cc1ccccc1)C(=O)O = 25.1

Would you be so kind as to report Kb for each listed record?
1. CC(C)(C)OC(=O)COc1ccc(C(=O)CN2CCN(c3ccncc3)CC2)cc1
2. CCCCC(=O)N[C@@H](Cc1ccc(OCC2CCN(c3ccncc3)CC2)cc1)C(=O)OC
3. O=C(O)C=Cc1ccc(CN2CCN(c3ccncc3)CC2)cc1
4. CS(=O)(=O)NCc1ccc(NC(=O)C2CCN(c3ccncc3)CC2)cc1
5. COC(=O)COc1ccc(C(=O)CN2CCN(c3ccnc4ccccc34)CC2)cc1
6. O=C(O)CCNC(=O)c1cccc(N2CCN(c3ccncc3)CC2)n1
7. O=C(O)COc1c(Cl)cc(C(=O)CN2CCN(c3ccncc3)CC2)cc1Cl [Example 123, dihydrochloride]

*A*
[10, 2, 7.94, 7.94, 39.8, 10, 1]

Would you be so kind as to report Kb for each listed record?
1. COC(=O)COc1ccc(OCCC2CCN(c3ccncc3)CC2)cc1
2. O=C(O)CC(NC(=O)c1cccc(CN2CCN(c3ccncc3)CC2)c1)c1ccccc1 (centres unmarked)
3. O=C(O)COc1ccc(OC2CCN(c3ccncc3)CC2)cc1
4. Cc1ccc(S(=O)(=O)Nc2ccc(C(=O)CN3CCN(c4ccncc4)CC3)cc2)cc1
5. CCOC(=O)CCCOc1ccc(N2CCN(c3ccncc3)CC2)cc1C
6. CCCCS(=O)(=O)NC(CC1CCN(C(=O)CN2CCN(c3ccncc3)CC2)CC1)C(=O)O (racemic)
7. O=C(O)COc1ccc2nccc(N3CCN(c4ccncc4)CC3)c2c1

*A*
[0.501, 31.6, 20, 2.51, 0.2, 5.01, 12.6]
